Record form. Attribute: growth. Fill in for each entry.
# Test system: Clostridium sporogenes DSM 1664
# experimental protocol: growth (OD595) fold change vs plate DMSO controls (fold change (ratio)); higher = more growth
# protocol conditions: 1.25 µM; incubation time: 27 h, anaerobic, 37 °C
Numbers only.

// worked examples, growth included
compound	growth
CCn1cc(C(=O)O)c(=O)c2cc3c(cc21)OCO3 [Oxolinic acid]	0.931
CCn1cc(C(=O)O)c(=O)c2cc(F)c(N3CCNCC3)nc21 [Enoxacin]	1.19
CC(C)(c1cc(Br)c(O)c(Br)c1)c1cc(Br)c(O)c(Br)c1 [TBBPA]	1.16
Cc1ncc([N+](=O)[O-])n1CCO [Metronidazole]	1.12

We next turn to a different compound, shown below.
Prompt: Which growth is reported for this compound? CN1CCN(c2c(F)cc3c(=O)c(C(=O)O)cn4c3c2SCC4)CC1 [Rufloxacin]
Completion: 0.879

Cited source for all entries: the supplement of paper PMC12494721
